Measured values drawn from paper PMC7819943 for this set.

measurement target: OsWRKY34 (Oryza sativa, UniProt Q0JBA9 1-250)
Sequence (Q0JBA9 entry or part of it): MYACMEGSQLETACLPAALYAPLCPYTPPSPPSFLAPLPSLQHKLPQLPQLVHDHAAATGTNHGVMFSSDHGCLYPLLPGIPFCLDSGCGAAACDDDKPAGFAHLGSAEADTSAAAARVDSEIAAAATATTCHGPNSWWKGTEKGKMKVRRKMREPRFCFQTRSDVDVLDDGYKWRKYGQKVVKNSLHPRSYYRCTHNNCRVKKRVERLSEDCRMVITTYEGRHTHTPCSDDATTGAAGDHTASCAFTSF
method notes: protein-binding microarray (RPBM); PBS, 2% BSA, 51.3 ng/ul salmon testes DNA, 50 uM zinc acetate, 200 nM TF, 25 C, 1 h; high values mean tight binding
measurement conditions: protein: recombinant; tags: N-terminal polyhistidine and DsRed monomer fusion (pET32a); label: CyDye5-dUTP incorporated in the synthesized complementary strand; 3' TTTTT single-stranded linker to array surface; dsDNA, one strand shown
In all, about 68,000 sequences were measured (“fluorescence intensity (a.u.)”: median about 9,100, highest 2% from about 16,000 on). The entries come from a sample that favours the highest values as a whole.
binding signal values, listed per item

Consider the following illustrative entries.
> print(dat)
                             sequence.entry                        measurement.target                      measured.result
1  GTCACCCTTCACCACGGCCATCTTCTCCTCGCTCGCCGTCCGGAGTCACCTAGTGCAG  OsWRKY34 (Oryza sativa, UniProt Q0JBA9 1-250)  11200 fluorescence intensity (a.u.)
2  CTCGAGCGGCGGTGGGGATGGGGATGGGGCGGCGGCGACGCGGAGTCACCTAGTGCAG  OsWRKY34 (Oryza sativa, UniProt Q0JBA9 1-250)  17000 fluorescence intensity (a.u.)
3  GTAGTGCTGATGTTGTACTGTGTTTTTTTACCCGTTTTATCGGAGTCACCTAGTGCAG  OsWRKY34 (Oryza sativa, UniProt Q0JBA9 1-250)  11500 fluorescence intensity (a.u.)
4  CGCGCCGCCCGCCGTCCCCATGCCACCGCGCTGCCCGCCGCGGAGTCACCTAGTGCAG  OsWRKY34 (Oryza sativa, UniProt Q0JBA9 1-250)  10200 fluorescence intensity (a.u.)
5  GGCTCGCGGAGGGCGGGGCTGGGATGGTGGCGGATGGGAGCGGAGTCACCTAGTGCAG  OsWRKY34 (Oryza sativa, UniProt Q0JBA9 1-250)  10800 fluorescence intensity (a.u.)
6  GTGGTGTAGTGGGAGCGGCCGAGATGGGGCGTCGACGGGGCGGAGTCACCTAGTGCAG  OsWRKY34 (Oryza sativa, UniProt Q0JBA9 1-250)   8770 fluorescence intensity (a.u.)
7  GCGGGAGGAGAGCGGCGGGCGGCGGGCGGCGGCGGCTGTGCGGAGTCACCTAGTGCAG  OsWRKY34 (Oryza sativa, UniProt Q0JBA9 1-250)   9520 fluorescence intensity (a.u.)
8  GCCGCGCCCGCGTCACCACCGCTACCGCCCGCGCGTCCCTCGGAGTCACCTAGTGCAG  OsWRKY34 (Oryza sativa, UniProt Q0JBA9 1-250)   8940 fluorescence intensity (a.u.)

### Prompt Field request: binding signal | item: GGAGATCCTGAGGCAGCGGGGAGAGGGGAGGTGGGCGATGCGGAGTCACCTAGTGCAG
### Response 10500 fluorescence intensity (a.u.)

* * *

measurement target: OsWRKY34 (Oryza sativa, UniProt Q0JBA9 1-250)
method notes: protein-binding microarray (RPBM); PBS, 2% BSA, 51.3 ng/ul salmon testes DNA, 50 uM zinc acetate, 200 nM TF, 25 C, 1 h; high values mean tight binding
measurement conditions: protein: recombinant; tags: N-terminal polyhistidine and DsRed monomer fusion (pET32a); label: CyDye5-dUTP incorporated in the synthesized complementary strand; 3' TTTTT single-stranded linker to array surface; dsDNA, one strand shown
Over roughly 68,000 sequences, “fluorescence intensity (a.u.)” has its median near 9,100; the highest 2% begin near 16,000. The list comes from a sample in which the highest values are over-represented; it also holds close analogues and randomly drawn sequences.
endpoint label: binding signal

Field: example entries. Status: answers known.
> print(dat)
                             sequence.entry                      measured.result
1  ATCACCGTCCCCGCTGCCGCCACCCGCCACTGCCGCAGCGCGGAGTCACCTAGTGCAG  10800 fluorescence intensity (a.u.)
2  ATCAGCCTCATGCCCTTGTAGTCCATCGATCTGTCAGATCCGGAGTCACCTAGTGCAG  13300 fluorescence intensity (a.u.)
3  CTACTTTACCAGCTCATCTATCACATCTTAACTGTATTTTCGGAGTCACCTAGTGCAG  10300 fluorescence intensity (a.u.)
4  GCTGCGGCCGTCAACGTGGTCGTCGTCTCCGCGGCCGCCGCGGAGTCACCTAGTGCAG  46900 fluorescence intensity (a.u.)
5  GTGGTGGGTGGTGGCCGCGCTGCTGCGCGGTGGGTCGCATCGGAGTCACCTAGTGCAG  11400 fluorescence intensity (a.u.)

### Prompt Fill in: binding signal of ATTCTATACTTTTGTTTCCCTATCATTTGACGCTTTACACCGGAGTCACCTAGTGCAG is ___
### Response 10000 fluorescence intensity (a.u.)

### Prompt Which binding signal is reported for this sequence? TTTGGGTGGTGGCAGTTGACAGAAGAGAGTGAGCACACAGCGGAGTCACCTAGTGCAG
### Response 8270 fluorescence intensity (a.u.)

### Prompt # input sequence: CTCCCTTGCCGTCCCAGTTTCCCTGTATTCTGCATGCCGTCGGAGTCACCTAGTGCAG ; wanted: its binding signal
### Response 9850 fluorescence intensity (a.u.)

### Prompt Form field: reported binding signal of AAGAGTACGGGTGGGGATGCTTTGGAGTTCACTCCAACTCCGGAGTCACCTAGTGCAG
### Response 10300 fluorescence intensity (a.u.)

### Prompt Requested read-out: binding signal. Entry: CACATGCTTATACCGTTCGTGCTGGAGTTCCTGATCGATGCGGAGTCACCTAGTGCAG
### Response 8070 fluorescence intensity (a.u.)

### Prompt // binding signal lookup, key: CCCAACCTCGCCGTCGCCGTCGCCGTCGCCGCCGTCTCCGCGGAGTCACCTAGTGCAG
### Response 10000 fluorescence intensity (a.u.)

* * *

In this section we review reported binding signal values for a set of sequences.
measurement target: OsWRKY34 (Oryza sativa, UniProt Q0JBA9 1-250)
method notes: protein-binding microarray (RPBM); PBS, 2% BSA, 51.3 ng/ul salmon testes DNA, 50 uM zinc acetate, 200 nM TF, 25 C, 1 h; high values mean tight binding
measurement conditions: protein: recombinant; tags: N-terminal polyhistidine and DsRed monomer fusion (pET32a); label: CyDye5-dUTP incorporated in the synthesized complementary strand; 3' TTTTT single-stranded linker to array surface; dsDNA, one strand shown
Whole data set: some 68,000 sequences, median “fluorescence intensity (a.u.)” near 9,100, cut for the highest 2% near 16,000. For the sample, the highest values were picked, then their nearest neighbours and some sequences at random.

### Prompt Dear colleague, I am looking for the recorded binding signal of the following sequence: GCGTCTGGGGCCTCGGGCGGCGCGCGCGGGGAGGGGCGTGCGGAGTCACCTAGTGCAG
### Response 10500 fluorescence intensity (a.u.)

* * *

measurement target: OsWRKY34 (Oryza sativa, UniProt Q0JBA9 1-250)
method notes: protein-binding microarray (RPBM); PBS, 2% BSA, 51.3 ng/ul salmon testes DNA, 50 uM zinc acetate, 200 nM TF, 25 C, 1 h; high values mean tight binding
measurement conditions: protein: recombinant; tags: N-terminal polyhistidine and DsRed monomer fusion (pET32a); label: CyDye5-dUTP incorporated in the synthesized complementary strand; 3' TTTTT single-stranded linker to array surface; dsDNA, one strand shown
In all, about 68,000 sequences were measured (“fluorescence intensity (a.u.)”: median about 9,100, highest 2% from about 16,000 on). The entries come from a sample that favours the highest values as a whole.
endpoint label: binding signal

Below are worked cases with known answers.
> print(dat)
                             sequence.entry                      measured.result
1  TTTTAAAACTGCTGGGATTTTGCTTTCTGTTTCTTCAATGCGGAGTCACCTAGTGCAG  10900 fluorescence intensity (a.u.)
2  TATATATATATATATATATATATATAGAAATTAAGTCAAACGGAGTCACCTAGTGCAG   8940 fluorescence intensity (a.u.)
3  CAGTGCGTATTTGCAATATATATATATAGGAAAGTTTCTTCGGAGTCACCTAGTGCAG   9390 fluorescence intensity (a.u.)
4  ATCACGTCGCCTCGTTTCTTGCCTCGCCGCTCGTTGCTCGCGGAGTCACCTAGTGCAG  12200 fluorescence intensity (a.u.)
5  AATTCAAATTCATACTGTTCAAACAAAGTCATATAGAAAACGGAGTCACCTAGTGCAG  28600 fluorescence intensity (a.u.)

### Prompt Record TATCTTATCAGGTCTCGTCTTCTTTAATCCAACCCTTGTTCGGAGTCACCTAGTGCAG : what is its binding signal with OsWRKY34 (Oryza sativa, UniProt Q0JBA9 1-250)?
### Response 8680 fluorescence intensity (a.u.)

### Prompt Query binding signal on OsWRKY34 (Oryza sativa, UniProt Q0JBA9 1-250) for AAATTCAAACTAGTTTCTACATAGCCTCTTTTCTCTATTTCGGAGTCACCTAGTGCAG
### Response 10900 fluorescence intensity (a.u.)

### Prompt Please state recorded binding signal (tested on OsWRKY34 (Oryza sativa, UniProt Q0JBA9 1-250)) of AAACGGTGCGTTTTTTGCAAAAAAATTCTATAGGAAAGTTCGGAGTCACCTAGTGCAG
### Response 63900 fluorescence intensity (a.u.)

### Prompt Request body: readout binding signal, system OsWRKY34 (Oryza sativa, UniProt Q0JBA9 1-250), query TTTTTCGCACGTTCTCTTTCGCCCTGTTTTTTTTGAAAGACGGAGTCACCTAGTGCAG . Return the value.
### Response 13300 fluorescence intensity (a.u.)
